These data points were gathered from patent US9242993B2.

- Test system: S6RP serine-240/244 phosphorylation
- method-notes: In vitro phospho-S6 cellular assay
- Assay type: cell-based
- stated-conditions: Homo sapiens; HEK293T/17 cells, 2 hours; read-out: pS6 inhibition value (IC50), activity level
pIC50: −log10 of the molar value.
Entries and their pIC50
measured-quantity: pIC50

CC1c2c(nc(-c3ccc(NC(=O)NC4CC4)cc3)nc2N2CCOC[C@H]2C)CS1(=O)=O (some centres unmarked); > 7.00
CCCNC(=O)Nc1ccc(-c2nc3c(c(N4CCOC[C@@H]4C)n2)C(C)S(=O)(=O)C3)cc1 (some centres unmarked); > 7.00
O=C(NCCF)Nc1ccc(-c2nc3c(c(N4CC5CCC(C4)O5)n2)CS(=O)(=O)C3)cc1; 6.00 to 7.00
CCNC(=O)Nc1ccc(-c2nc3c(c(N4CCOC[C@@H]4CC)n2)[C@@H](C)S(=O)(=O)C3)cc1; > 7.00
O=C(NCCCF)Nc1ccc(-c2nc3c(c(N4CC5CCC(C4)O5)n2)CS(=O)(=O)C3)cc1; 6.00 to 7.00
CCNC(=O)Nc1ccc(-c2nc3c(c(N4CCOC[C@@H]4C)n2)C(C)S(=O)(=O)C3)cc1F (some centres unmarked); > 7.00
C[C@H]1COCCN1c1nc(-c2ccc(NC(=O)NC3CC3)cc2)nc2c1CSCC2; > 7.00
CNC(=O)Nc1ccc(-c2nc(N3CCOC[C@@H]3C)c3c(n2)C(C)(C)S(=O)(=O)C3)cc1F; > 7.00

----------
- Test system: S6RP serine-240/244 phosphorylation
- method-notes: In vitro phospho-S6 cellular assay
- Type: cell-based
- stated-conditions: Homo sapiens; HEK293T/17 cells, 2 hours; read-out: pS6 inhibition value (IC50), activity level
measured-quantity: IC50

CC1c2c(N3CCOC[C@@H]3C)nc(-c3ccc(NC(=O)NCCF)cc3)nc2C(C)(C)S1(=O)=O (some centres unmarked); < 100 nM
O=C(Nc1ccc(-c2nc3c(c(N4C5CCC4COC5)n2)CS(=O)(=O)C3)cc1)NC1CC1; < 100 nM
CC(C)NC(=O)Nc1ccc(-c2nc3c(c(N4CCOC[C@@H]4C)n2)CS(=O)(=O)C3)cc1; 100 to 1000 nM
C[C@H]1COCCN1c1nc(-c2ccc(NC(=O)NC3CC3)cc2)nc2c1CSC2; < 100 nM
CC1(C)c2nc(-c3ccc(NC(=O)NC4CC4)cc3)nc(N3C4CCC3COC4)c2CS1(=O)=O; < 100 nM
CNC(=O)Nc1ccc(-c2nc3c(c(N4CCOC[C@@H]4C)n2)CS(=O)(=O)C3)cc1; 100 to 1000 nM
CC1c2c(nc(-c3ccc(NC(=O)NC4CC4)cc3)nc2N2CCOCC2)CS1(=O)=O (centres unmarked); < 100 nM
C[C@H]1COCCN1c1nc(-c2ccc(NC(=O)NC3CC3)cc2)nc2c1CS(=O)(=O)C2(C)C; < 100 nM
CCNC(=O)Nc1ccc(-c2nc(N3C4CCC3COC4)c3c(n2)C(C)(C)S(=O)(=O)C3)cc1; < 100 nM
CCNC(=O)Nc1ccc(-c2nc(N3CCOC[C@@H]3C)c3c(n2)C(C)(C)S(=O)(=O)C3)c(F)c1; < 100 nM
O=C(Nc1ccc(-c2nc3c(c(N4CC5CCC(C4)O5)n2)CS(=O)(=O)C3)cc1)NC1CC1; 100 to 1000 nM
CNC(=O)Nc1ccc(-c2nc3c(c(N4CC5CCC(C4)O5)n2)CS(=O)(=O)C3)cc1; 100 to 1000 nM
C[C@@H]1c2c(nc(-c3ccc(NC(=O)NC4CC4)cc3)nc2N2CCOC[C@@H]2C)CS1(=O)=O (single isomer, unassigned); < 100 nM
CNC(=O)Nc1ccc(-c2nc(N3CCOC[C@@H]3C)c3c(n2)C(C)(C)S(=O)(=O)C3C)c(F)c1 (some centres unmarked); < 100 nM
CCNC(=O)Nc1ccc(-c2nc(N3CCOCC3)c3c(n2)C(C)(C)S(=O)(=O)C3)cc1; < 100 nM
C[C@H]1COCCN1c1nc(-c2ccc(NC(=O)NC3CC3)cc2)nc2c1CS(=O)(=O)C(C)(C)C2; < 100 nM
C[C@H]1COCCN1c1nc(-c2ccc(NC(=O)NC3CC3)cc2)nc2c1S(=O)(=O)CC2; < 100 nM
CNC(=O)Nc1ccc(-c2nc(N3CCOC[C@@H]3C)c3c(n2)C(C)(C)S(=O)(=O)C3C)cc1 (some centres unmarked); < 100 nM
CCNC(=O)Nc1ccc(-c2nc3c(c(N4CCOC[C@@H]4C)n2)C(C)S(=O)(=O)C3)cc1 (some centres unmarked); < 100 nM
CCNC(=O)Nc1ccc(-c2nc(N3CCOC[C@H]3C)c3c(n2)C(C)(C)S(=O)(=O)C3)cc1; < 100 nM
